Test: Solubility per "Testing Method For Determining The Solubility", Chinese Pharmacopoeia 2005
Assay type: physicochemical
Details: water, 25 °C, thermodynamic from solid, 25±1° C., read-out: solubility
assay endpoint: solubility

Asked: State the recorded solubility for this entry: Cc1ccc(=O)n(-c2cccc(F)c2)c1 [FFD]
Given back: 1410 to 1490 µg/mL

====

Assay: Solubility measurement: excess sample shaken in purified water for 48 hours, filtered supernatant measured
Format: physicochemical
Conditions: thermodynamic from solid, 37° C., shaken 48 hours
assay endpoint: solubility at 48 h

Asked: State the recorded solubility at 48 h for this entry: Cc1ccc(=O)n(-c2cccc(F)c2)c1
Given back: 3140 to 3160 µg/mL

====

Experiment: Solubility measurement: excess sample shaken in purified water for 48 hours, filtered supernatant measured
Format: physicochemical
Conditions: thermodynamic from solid, 25° C., shaken 48 hours
assay endpoint: solubility at 48 h

Asked: State the recorded solubility at 48 h for this entry: Cc1ccc(=O)n(-c2cccc(F)c2)c1
Given back: 2440 to 2550 µg/mL
